assay: Solubility trials: saturation concentration of the oxazaphosphorine in water / aqueous urea solution; conditions: aqueous urea solution, Ifosfamid-Endkonzentration, Harnstoff-Startkonzentration 9,0 % (G/V); Harnstoff-Endkonzentration 5,1 % (G/G)
property_measured: solubility
Param answer (str): number followed by unit.

Lookup: Returns the measured solubility for the input compound. Input: O=P1(NCCCl)OCCCN1CCCl (stereo not shown) [Ifosfamid]
Found: 173 mg/mL

====

test: Solubility trials: saturation concentration of the oxazaphosphorine in water / aqueous urea solution; details: aqueous urea solution, Ifosfamid-Endkonzentration, Harnstoff-Startkonzentration 10,0 % (G/V); Harnstoff-Endkonzentration 6,6 % (G/G)
property_measured: solubility (mg/mL)
Numbers only; they are read as mg/mL.

Lookup: Returns the measured solubility for the input compound. Input: O=P1(NCCCl)OCCCN1CCCl (stereo not shown) [Ifosfamid]
Found: 370

These data points were gathered from patent EP1023075B1.
